# subject of test: Human immunodeficiency virus type 1 protease (Human immunodeficiency virus 1)
# measurement notes: Percent inhibition against human immunodeficiency virus 1 protease
# Design: concentration or dose not given beside the values
# conditions: concentration not given here
Give measured inhibition for each item. Keep answers brief.
# value in %; strip the unit string

Value of measured inhibition for the entry CCCCNC(=O)C(Cc1ccccc1)N1C(=O)CC1c1ccccc1 (stereo not given) : 74

Value of measured inhibition for the entry O=C(OCc1ccccc1)C1CC(=O)N1C(C(=O)NCC1N=Cc2cncnc21)c1ccccc1 (stereo not given) : 97

Value of measured inhibition for the entry CCCC(C(=O)NCC1N=Cc2cncnc21)N1C(=O)CC1C(=O)OCc1ccccc1 (stereo not given) : 83

Value of measured inhibition for the entry CCCC(C(=O)NCC1N=Cc2cncnc21)N1CCC1=O (stereo not given) : 74

Value of measured inhibition for the entry COC(=O)C(Cc1ccccc1)NC(=O)C1CC(=O)N1C(Cc1ccccc1)C(=O)NCC(C)C (stereo not given) : 68

Data provenance is ChEMBL document CHEMBL1139628.
